Target chain: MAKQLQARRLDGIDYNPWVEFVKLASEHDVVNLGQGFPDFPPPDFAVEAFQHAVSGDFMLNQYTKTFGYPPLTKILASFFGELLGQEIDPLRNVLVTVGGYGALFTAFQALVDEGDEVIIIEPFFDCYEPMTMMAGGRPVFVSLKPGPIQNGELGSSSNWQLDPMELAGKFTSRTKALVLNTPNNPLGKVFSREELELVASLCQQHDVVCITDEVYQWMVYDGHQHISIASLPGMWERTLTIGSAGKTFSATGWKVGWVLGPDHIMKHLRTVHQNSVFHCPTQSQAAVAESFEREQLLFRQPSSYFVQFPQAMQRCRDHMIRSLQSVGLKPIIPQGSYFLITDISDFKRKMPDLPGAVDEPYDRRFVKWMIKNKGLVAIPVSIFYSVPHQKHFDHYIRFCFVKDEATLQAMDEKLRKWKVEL
parameter measured: IC50 (µM)
// units = µM; emit number, no label

**Q:** Identify measured IC50 corresponding to `N[C@H]1Cc2ccccc2N(O)C1=O`
**A:** 22

----------
# system: Kynurenine/alpha-aminoadipate aminotransferase, mitochondrial (Rattus norvegicus)
# test summary: Inhibition of rat recombinant KAT2 assessed as conversion of L-kynurenine into kynurenic acid after 15 to 20 hrs
We label by threshold. Values of IC50 strictly beneath 300 nM are satisfied. Values of 300 nM and up are not satisfied.

Use these answered entries as a reference point.
# molecule, group label
rows = [
    ("N[C@H]1Cc2ccc(Cl)cc2N(O)C1=O", "satisfied"),
    ("N[C@H]1Cc2cc(C(F)(F)F)ccc2N(O)C1=O", "not satisfied"),
    ("CC1(N)Cc2ccccc2N(O)C1=O (configuration not stated)", "not satisfied"),
    ("N[C@H]1Cc2cccc(F)c2N(O)C1=O", "not satisfied"),
    ("N[C@H]1Cc2c(cccc2C(F)(F)F)N(O)C1=O", "not satisfied"),
    ("N[C@H]1Cc2cc(Cl)ccc2N(O)C1=O", "satisfied"),
]

**Q:** State whether 300 nM exceeds IC50 recorded for `N[C@H]1Cc2ccccc2N(O)C1=O` .
**A:** satisfied

----------
# system: Kynurenine/alpha-aminoadipate aminotransferase, mitochondrial (Rattus norvegicus, UniProt Q64602)
# Sequence (Q64602 whole entry): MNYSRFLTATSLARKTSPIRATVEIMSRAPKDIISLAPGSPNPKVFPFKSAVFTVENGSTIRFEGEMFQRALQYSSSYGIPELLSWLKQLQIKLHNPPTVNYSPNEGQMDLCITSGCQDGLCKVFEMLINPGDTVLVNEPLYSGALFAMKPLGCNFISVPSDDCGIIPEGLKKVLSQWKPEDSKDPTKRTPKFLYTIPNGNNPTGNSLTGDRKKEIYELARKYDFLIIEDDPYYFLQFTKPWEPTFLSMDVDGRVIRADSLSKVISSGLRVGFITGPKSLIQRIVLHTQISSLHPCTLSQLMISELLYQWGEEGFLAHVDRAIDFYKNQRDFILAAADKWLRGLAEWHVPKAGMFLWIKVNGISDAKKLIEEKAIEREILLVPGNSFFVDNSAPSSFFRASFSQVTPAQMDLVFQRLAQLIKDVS
# test summary: Inhibition of rat recombinant KAT2 assessed as conversion of L-kynurenine into kynurenic acid after 15 to 20 hrs
Each entry below carries its recorded IC50.

# count of solved cases: 10
# item smiles, IC50
data = [
    ("COc1cccc2c1N(O)C(=O)[C@@H](N)C2", "> 10000 nM"),
    ("C[C@H]1c2ccccc2N(O)C(=O)[C@H]1N", "> 1330 nM"),
    ("CON1C(=O)[C@@H](N)Cc2ccccc21", "> 10000 nM"),
    ("COc1ccc2c(c1)N(O)C(=O)[C@@H](N)C2", "137 nM"),
    ("Cc1cccc2c1C[C@H](N)C(=O)N2O", "> 10000 nM"),
    ("N[C@@H]1Cc2ccccc2N(O)C1=O", "1170 nM"),
    ("COc1cccc2c1C[C@H](N)C(=O)N2O", "> 4920 nM"),
    ("N[C@H]1Cc2c(F)cccc2N(O)C1=O", "2060 nM"),
    ("N[C@H]1Cc2c(Cl)cccc2N(O)C1=O", "> 7970 nM"),
    ("Cc1ccc2c(c1)C[C@H](N)C(=O)N2O", "402 nM"),
]

**Q:** Identify measured IC50 corresponding to `N[C@H]1Cc2cccc(C(F)(F)F)c2N(O)C1=O`
**A:** > 6810 nM

**Q:** Identify measured IC50 corresponding to `N[C@H]1Cc2cccc(Cl)c2N(O)C1=O`
**A:** > 10000 nM

**Q:** Identify measured IC50 corresponding to `Cc1cccc2c1N(O)C(=O)[C@@H](N)C2`
**A:** > 10000 nM

**Q:** Identify measured IC50 corresponding to `Cc1ccc2c(c1)N(O)C(=O)[C@@H](N)C2`
**A:** 368 nM

----------
# system: Kynurenine/alpha-aminoadipate aminotransferase, mitochondrial (Homo sapiens)
# test summary: Inhibition of human recombinant KAT2 assessed as conversion of L-kynurenine into kynurenic acid after 15 to 20 hrs
# Sequence (Q8N5Z0 whole entry): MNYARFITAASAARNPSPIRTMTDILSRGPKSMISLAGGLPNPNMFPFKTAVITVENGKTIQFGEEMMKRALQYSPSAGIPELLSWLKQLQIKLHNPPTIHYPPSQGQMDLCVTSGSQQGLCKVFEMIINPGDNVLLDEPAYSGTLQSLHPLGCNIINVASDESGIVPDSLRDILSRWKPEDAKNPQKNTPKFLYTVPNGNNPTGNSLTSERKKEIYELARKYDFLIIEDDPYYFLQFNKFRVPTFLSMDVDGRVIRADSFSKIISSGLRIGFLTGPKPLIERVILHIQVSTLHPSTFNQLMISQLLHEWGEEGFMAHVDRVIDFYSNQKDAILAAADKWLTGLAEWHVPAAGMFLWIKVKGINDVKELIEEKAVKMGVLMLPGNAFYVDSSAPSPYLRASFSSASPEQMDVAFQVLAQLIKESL
Each entry below carries its recorded log10 of IC50.
A value of 2 here means IC50 of 100 in nM, since values are log10.

# item smiles, log10 of IC50
data = [
    ("Cc1cccc2c1N(O)C(=O)[C@@H](N)C2", 3.02),
]

**Q:** Identify measured log10 of IC50 corresponding to `N[C@H]1Cc2c(Cl)cccc2N(O)C1=O`
**A:** 2.54

**Q:** Identify measured log10 of IC50 corresponding to `Cc1ccc2c(c1)N(O)C(=O)[C@@H](N)C2`
**A:** 1.57

**Q:** Identify measured log10 of IC50 corresponding to `COc1cccc2c1N(O)C(=O)[C@@H](N)C2`
**A:** 2.76

**Q:** Identify measured log10 of IC50 corresponding to `N[C@H]1Cc2cccc(Cl)c2N(O)C1=O`
**A:** 2.40

**Q:** Identify measured log10 of IC50 corresponding to `N[C@@H]1Cc2ccccc2N(O)C1=O`
**A:** 2.34

**Q:** Identify measured log10 of IC50 corresponding to `Cc1ccc2c(c1)C[C@H](N)C(=O)N2O`
**A:** 1.48

**Q:** Identify measured log10 of IC50 corresponding to `N[C@H]1Cc2cccc(C(F)(F)F)c2N(O)C1=O`
**A:** 2.24

**Q:** Identify measured log10 of IC50 corresponding to `N[C@H]1Cc2ccccc2N(O)C1=O`
**A:** 1.36

**Q:** Identify measured log10 of IC50 corresponding to `Cc1cccc2c1C[C@H](N)C(=O)N2O`
**A:** 2.50

**Q:** Identify measured log10 of IC50 corresponding to `N[C@H]1Cc2c(F)cccc2N(O)C1=O`
**A:** 1.65

**Q:** Identify measured log10 of IC50 corresponding to `N[C@H]1Cc2cc(Cl)ccc2N(O)C1=O`
**A:** 1.56

**Q:** Identify measured log10 of IC50 corresponding to `N[C@H]1Cc2cccc(F)c2N(O)C1=O`
**A:** 1.60

----------
# test summary: Fraction unbound in rat brain at 1 uM by equilibrium dialysis method
# Format: ADME, tissue-based
parameter measured: fraction unbound at 1 µM

**Q:** Identify measured fraction unbound at 1 µM corresponding to `N[C@H]1Cc2ccccc2N(O)C1=O`
**A:** 0.393

----------
# test summary: Fraction unbound in rat plasma at 1 uM by equilibrium dialysis method
# Assay type: ADME, cell-free
parameter measured: fraction unbound at 1 µM
Form: value (number only, do not type unit).

**Q:** Identify measured fraction unbound at 1 µM corresponding to `N[C@H]1Cc2ccccc2N(O)C1=O`
**A:** 0.893

----------
# system: Kynurenine/alpha-aminoadipate aminotransferase, mitochondrial (Homo sapiens, UniProt Q8N5Z0)
# test summary: Ratio of Kinact to Ki for human recombinant KAT2 using L-kynurenine as substrate
# Sequence (Q8N5Z0 30-425 limits assumed): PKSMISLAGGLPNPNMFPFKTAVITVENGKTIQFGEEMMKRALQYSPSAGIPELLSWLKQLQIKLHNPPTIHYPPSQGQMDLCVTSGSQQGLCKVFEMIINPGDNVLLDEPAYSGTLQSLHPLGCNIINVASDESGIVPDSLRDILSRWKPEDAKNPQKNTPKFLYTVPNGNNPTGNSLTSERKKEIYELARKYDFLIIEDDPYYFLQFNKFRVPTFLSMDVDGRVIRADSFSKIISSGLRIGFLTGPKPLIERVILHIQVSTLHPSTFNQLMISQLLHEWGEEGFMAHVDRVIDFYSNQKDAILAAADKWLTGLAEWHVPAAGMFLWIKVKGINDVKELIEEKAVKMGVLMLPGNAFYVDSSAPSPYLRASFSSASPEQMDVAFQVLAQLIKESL
We label by threshold. Values of Ratio strictly beneath 10000 M⁻¹ s⁻¹ are YES. Values of 10000 M⁻¹ s⁻¹ and up are NO.

Use these answered entries as a reference point.
# item smiles, group label
measured = [
    ("N[C@H]1Cc2cccc(C(F)(F)F)c2N(O)C1=O", "YES"),
    ("N[C@H]1Cc2ccccc2N(O)C1=O", "NO"),
    ("N[C@H]1Cc2cccc(F)c2N(O)C1=O", "YES"),
    ("N[C@H]1Cc2cccc(Cl)c2N(O)C1=O", "YES"),
    ("N[C@H]1Cc2c(Cl)cccc2N(O)C1=O", "YES"),
]

**Q:** State whether 10000 M⁻¹ s⁻¹ exceeds Ratio recorded for `N[C@H]1Cc2ccc(Cl)cc2N(O)C1=O` .
**A:** NO

**Q:** State whether 10000 M⁻¹ s⁻¹ exceeds Ratio recorded for `Cc1ccc2c(c1)N(O)C(=O)[C@@H](N)C2` .
**A:** NO

**Q:** State whether 10000 M⁻¹ s⁻¹ exceeds Ratio recorded for `COc1cccc2c1C[C@H](N)C(=O)N2O` .
**A:** YES

**Q:** State whether 10000 M⁻¹ s⁻¹ exceeds Ratio recorded for `N[C@H]1Cc2cc(Cl)ccc2N(O)C1=O` .
**A:** NO

**Q:** State whether 10000 M⁻¹ s⁻¹ exceeds Ratio recorded for `N[C@H]1Cc2c(F)cccc2N(O)C1=O` .
**A:** YES

**Q:** State whether 10000 M⁻¹ s⁻¹ exceeds Ratio recorded for `Cc1ccc2c(c1)C[C@H](N)C(=O)N2O` .
**A:** NO

**Q:** State whether 10000 M⁻¹ s⁻¹ exceeds Ratio recorded for `COc1cccc2c1N(O)C(=O)[C@@H](N)C2` .
**A:** YES

**Q:** State whether 10000 M⁻¹ s⁻¹ exceeds Ratio recorded for `COc1ccc2c(c1)N(O)C(=O)[C@@H](N)C2` .
**A:** NO

**Q:** State whether 10000 M⁻¹ s⁻¹ exceeds Ratio recorded for `N[C@H]1Cc2cc(C(F)(F)F)ccc2N(O)C1=O` .
**A:** NO
